Record set of Rat hepatocytes (efficacy) (MMP) for target or system rat primary hepatocytes.
Experimental Readout: Rat hepatocytes (efficacy) (MMP)

INSERT INTO assay_data (molecule, study_system, experimental_readout, observed_result) VALUES
  ('O=C(Nc1ccccc1)Nc1cnns1', 'rat primary hepatocytes', 'Rat hepatocytes (efficacy) (MMP)', '14.7±2.52 ( −98.5±15.2 ) %'),
  ('Nc1ccc(N)c2c1C(=O)c1ccccc1C2=O', 'rat primary hepatocytes', 'Rat hepatocytes (efficacy) (MMP)', '3.79±1.62 ( −118±24.7 ) %'),
  ('O=C1c2ccccc2C(=O)C1C(=O)C(c1ccccc1)c1ccc(Cl)cc1 (centres unmarked)', 'rat primary hepatocytes', 'Rat hepatocytes (efficacy) (MMP)', '10.5±4.28 ( −97.8±13.3 ) %'),
  ('N#CC(C#N)=NNc1ccc(OC(F)(F)F)cc1 [FCCP, reference compound]', 'rat primary hepatocytes', 'Rat hepatocytes (efficacy) (MMP)', '0.35±0.06 ( −95.4±4.65 ) %'),
  ('CC(C)c1cccc(C(C)C)c1N1C(=O)c2ccc(O)cc2C1=O', 'rat primary hepatocytes', 'Rat hepatocytes (efficacy) (MMP)', '38.3±4.41 ( −99.8±6.08 ) %');

Values were extracted from paper PMC6112376.
